- System: SK-LU-1
- Experimental Protocol: Antiproliferative activity against human SK-LU-1 cells assessed as inhibition of cell growth at 10 uM incubated for 48 hrs by SRB assay relative to control
- Assay type: functional
- Parameters: scale not given: the % may be the effect or the level left
Measured Activity accompanies every entry in the list below.

- Compound: "CCCCCCCCCCNC(=O)CN1CCCCN(CC(=O)NC(C)(C)C)C(=O)c2cccc(c2)-c2cccc(c2)C1=O"
  Readout Units: "%"
  Activity: 50.4
- Compound: "CCCCCCCCCCCCNC(=O)C(c1ccc(C)cc1)N1CCCCN(CC(=O)NC(C)(C)C)C(=O)c2cccc(c2)-c2cccc(c2)C1=O (racemic)"
  Readout Units: "%"
  Activity: 32.4
- Compound: "CCCCCCCCCCCCNC(=O)C(c1ccc(OC)cc1C)N1CCCCN(CC(=O)NC(C)(C)C)C(=O)c2cccc(c2)-c2cccc(c2)C1=O (racemic)"
  Readout Units: "%"
  Activity: 29
- Compound: "CCCCCCCCCCNC(=O)C(c1ccco1)N1CCCCN(CC(=O)NC(C)(C)C)C(=O)c2cccc(c2)-c2cccc(c2)C1=O (racemic)"
  Readout Units: "%"
  Activity: 25.3
- Compound: "CCCCCCCCCCNC(=O)CN1CCCCN(CC(=O)NC(C)(C)C)C(=O)c2cccc(c2)-c2ccc(O)c(c2)C1=O"
  Readout Units: "%"
  Activity: 27.7
- Compound: "CCCCCCCCCCCCNC(=O)C(c1ccc(Cl)cc1)N1CCCCN(CC(=O)NC(C)(C)C)C(=O)c2cccc(c2)-c2cccc(c2)C1=O (racemic)"
  Readout Units: "%"
  Activity: 52.3
- Compound: "CCCCCCCCCCNC(=O)C(c1ccc(F)cc1)N1CCCCN(CC(=O)NC(C)(C)C)C(=O)c2cccc(c2)-c2cccc(c2)C1=O (racemic)"
  Readout Units: "%"
  Activity: 31.8
- Compound: "CCCCCCCNC(=O)CN1CCCCN(CC(=O)NC(C)(C)C)C(=O)c2cccc(c2)-c2cccc(c2)C1=O"
  Readout Units: "%"
  Activity: 88.6
- Compound: "CCCCCCCCCCCCNC(=O)C(c1cc(C)ccc1F)N1CCCCN(CC(=O)NC(C)(C)C)C(=O)c2cccc(c2)-c2cccc(c2)C1=O (racemic)"
  Readout Units: "%"
  Activity: 3.1
- Compound: "CCCCCCCCCCCCNC(=O)C(c1ccc(F)cc1)N1CCCCN(CC(=O)NC(C)(C)C)C(=O)c2cccc(c2)-c2cccc(c2)C1=O (racemic)"
  Readout Units: "%"
  Activity: 18.8
- Compound: "CCCCCCCCCCCCNC(=O)C(c1ccoc1)N1CCCCN(CC(=O)NC(C)(C)C)C(=O)c2cccc(c2)-c2cccc(c2)C1=O (racemic)"
  Readout Units: "%"
  Activity: 32.3
- Compound: "CCCCCCCCCCCCNC(=O)C(c1ccc(OC)cc1)N1CCCCN(CC(=O)NC(C)(C)C)C(=O)c2cccc(c2)-c2cccc(c2)C1=O (racemic)"
  Readout Units: "%"
  Activity: 37.8
- Compound: "CCCCCCCCCCCNC(=O)CN1CCCCN(CC(=O)NC(C)(C)C)C(=O)c2cccc(c2)-c2cccc(c2)C1=O"
  Readout Units: "%"
  Activity: 23.2
- Compound: "CCCCCCCCCCCCNC(=O)C(c1cc(OC)c(OC)c(OC)c1)N1CCCCN(CC(=O)NC(C)(C)C)C(=O)c2cccc(c2)-c2cccc(c2)C1=O (racemic)"
  Readout Units: "%"
  Activity: 34.4
- Compound: "CCCCCCCCCCCCNC(=O)C(c1ccc([N+](=O)[O-])cc1)N1CCCCN(CC(=O)NC(C)(C)C)C(=O)c2cccc(c2)-c2cccc(c2)C1=O (racemic)"
  Readout Units: "%"
  Activity: 45.2
- Compound: "CCCCCCCCCCCCNC(=O)C(c1ccc(SC)cc1)N1CCCCN(CC(=O)NC(C)(C)C)C(=O)c2cccc(c2)-c2cccc(c2)C1=O (racemic)"
  Readout Units: "%"
  Activity: 45.6
- Compound: "CCCCCCCCNC(=O)CN1CCCCN(CC(=O)NC(C)(C)C)C(=O)c2cccc(c2)-c2cccc(c2)C1=O"
  Readout Units: "%"
  Activity: 9.6
- Compound: "CCCCCCCCCCNC(=O)C(c1ccoc1)N1CCCCN(CC(=O)NC(C)(C)C)C(=O)c2cccc(c2)-c2cccc(c2)C1=O (racemic)"
  Readout Units: "%"
  Activity: 18.8
- Compound: "CCCCCCCCCCCCNC(=O)C(c1ccccc1)N1CCCCN(CC(=O)NC(C)(C)C)C(=O)c2cccc(c2)-c2cccc(c2)C1=O (racemic)"
  Readout Units: "%"
  Activity: 28.5
- Compound: "CCCCCCCCCNC(=O)CN1CCCCN(CC(=O)NC(C)(C)C)C(=O)c2cccc(c2)-c2cccc(c2)C1=O"
  Readout Units: "%"
  Activity: 45.3

Every entry's value here was drawn from ChEMBL document CHEMBL5143595.
